Below is a list of entries, each paired with its recorded IC50 at 48 h value.
# method: Cytotoxicity against human HeLa cells incubated for 48 hrs by WST-8 assay
# Assay type: toxicity, cell-based

Before answering, review these 3 worked examples.
CCCCc1c([C@H](CCC(C)C)C(=O)CCCC(C)C)oc(=O)c(CCCC)c1O; 8.9 µg/mL
CCCCCC(=O)[C@@H](CCC(C)C)c1oc(=O)c(CCCC)c(O)c1CCCC; 9.7 µg/mL
CCCCCC(=O)[C@@H](CCCC)c1oc(=O)c(CC(C)C)c(O)c1CCCC; > 10 µg/mL

Field request: IC50 at 48 h | item: `CCCCCCc1c(O)c(CCCC)c([C@H](CCCC)C(=O)CCCCC)oc1=O`
7.6 µg/mL

Requested read-out: IC50 at 48 h. Entry: `CCCCc1c(CCCC(C)C)oc(=O)c(CCCC)c1O`
> 10 µg/mL

###

# Tested on: Escherichia coli
# method: Antibacterial activity against Escherichia coli HO141 incubated for 24 hrs by absorbance based analysis
# Format: functional, organism-based
# condition-summary: HO141, 24 h
property-name: IC50

Example entries and their recorded answers appear below.
CCCCCCc1c(O)c(CCCC)c([C@H](CCCC)C(=O)CCCCC)oc1=O; > 10 µg/mL
CCCCc1c([C@H](CCCC)C(=O)CCCC(C)C)oc(=O)c(CCC(C)C)c1O; > 10 µg/mL
CCCCCCCc1oc(=O)c(CCCC)c(O)c1CCCC; > 10 µg/mL
CCCCc1c(O)c(CCC(C)C)c([C@H](CCCC)C(=O)CCCC(C)C)oc1=O; > 10 µg/mL
CCCCCC(=O)[C@@H](CCC(C)C)c1oc(=O)c(CCCC)c(O)c1CCCC; > 10 µg/mL
CCCCCc1oc(=O)c(CCCC)c(O)c1CCCC; > 10 µg/mL
CCCCc1c([C@H](CCCC)C(=O)CCC(C)C)oc(=O)c(CCCC)c1O; > 10 µg/mL
CCCCCC(=O)[C@@H](CCCC)c1oc(=O)c(CCCC)c(O)c1CCCC; > 10 µg/mL
CCCCc1c(CCCC(C)C)oc(=O)c(CCCC)c1O; > 10 µg/mL
CCCCCC(=O)[C@@H](CCCC)c1oc(=O)c(CC(C)C)c(O)c1CCCC; > 10 µg/mL

Give the measured IC50 of `CCCCCC(=O)[C@@H](CCCC)c1oc(=O)c(CCC(C)C)c(O)c1CCCC` .
> 10 µg/mL

Give the measured IC50 of `CCCCc1c([C@H](CCC(C)C)C(=O)CCCC(C)C)oc(=O)c(CCCC)c1O` .
> 10 µg/mL

###

# IC50 annotations
# method: Inhibition of metallo-beta lactamase (unknown origin) by nitrocefin method
# Design: species or system Bacteria

CCCCCCc1c(O)c(CCCC)c([C@H](CCCC)C(=O)CCCCC)oc1=O; > 100 µM

Can you look up the measured IC50 of `CCCCc1c(CCCC(C)C)oc(=O)c(CCCC)c1O` for me?
> 100 µM

Name the reported IC50 value associated with the molecule `CCCCCCCc1oc(=O)c(CCCC)c(O)c1CCCC`
> 100 µM

State the recorded IC50 for this entry: `CCCCc1c([C@H](CCCC)C(=O)CCC(C)C)oc(=O)c(CCCC)c1O`
> 100 µM

Returns the measured IC50 for the input molecule. Input: `CCCCc1c([C@H](CCCC)C(=O)CCCC(C)C)oc(=O)c(CCC(C)C)c1O`
15.3 µM

// returns reported IC50 for input `CCCCc1c([C@H](CCC(C)C)C(=O)CCCC(C)C)oc(=O)c(CCCC)c1O`
> 100 µM

Which IC50 value belongs to C[C@H](CS)C(=O)N1CCC[C@H]1C(=O)O [CAPTOPRIL] ?
69 µM

Quick check: IC50 of `CCCCCC(=O)[C@@H](CCC(C)C)c1oc(=O)c(CCCC)c(O)c1CCCC` ?
> 100 µM

Item under review: `CCCCc1c(O)c(CCC(C)C)c([C@H](CCCC)C(=O)CCCC(C)C)oc1=O` . Reported IC50?
> 100 µM

Field request: IC50 | item: `CCCCCc1oc(=O)c(CCCC)c(O)c1CCCC`
> 100 µM

For `CCCCCC(=O)[C@@H](CCCC)c1oc(=O)c(CC(C)C)c(O)c1CCCC` , what is its reported IC50?
> 100 µM

###

Items are presented alongside their recorded MIC.
# Tested on: Staphylococcus aureus
# method: Antibacterial activity against methicillin sensitive Staphylococcus aureus FDA209P by CLSI protocol based assay
# Type: functional
State just the number; it will be interpreted in µg/mL.

CCCCc1c(O)c(CCC(C)C)c([C@H](CCCC)C(=O)CCCC(C)C)oc1=O; 2.5

Endpoint output: MIC of `CCCCCC(=O)[C@@H](CCCC)c1oc(=O)c(CCC(C)C)c(O)c1CCCC` . Value?
6

Find the recorded MIC belonging to C[C@@H](O)[C@H]1C(=O)N2C(C(=O)O)=C(S[C@@H]3CN[C@H](C(=O)N(C)C)C3)[C@H](C)[C@H]12 [MEROPENEM] and report it.
0.031

###

# method: Cytotoxicity against human HeLa cells incubated for 48 hrs by WST-8 assay
# Assay type: toxicity, cell-based
property-name: IC50 at 48 h

Worked examples follow.
CCCCCCCc1oc(=O)c(CCCC)c(O)c1CCCC; > 10 µg/mL
CCCCCC(=O)[C@@H](CCCC)c1oc(=O)c(CCCC)c(O)c1CCCC; > 10 µg/mL
CCCCc1c([C@H](CCCC)C(=O)CCCC(C)C)oc(=O)c(CCC(C)C)c1O; 8.4 µg/mL
CCCCc1c(O)c(CCC(C)C)c([C@H](CCCC)C(=O)CCCC(C)C)oc1=O; 6.3 µg/mL
CCCCc1c([C@H](CCCC)C(=O)CCC(C)C)oc(=O)c(CCCC)c1O; > 10 µg/mL

Can you share its IC50 at 48 h? I mean this compound: `CCCCCc1oc(=O)c(CCCC)c(O)c1CCCC`
> 10 µg/mL

# IC50 at 48 h lookup, item `CCCCCC(=O)[C@@H](CCCC)c1oc(=O)c(CCC(C)C)c(O)c1CCCC`
7.3 µg/mL

Reference source: ChEMBL document CHEMBL5634176
